tested on: J774 cells infected with P. aeruginosa strain PAK; assay: cells; assay type: cell-based, Pseudomonas aeruginosa; conditions: Pseudomonas aeruginosa, J774, compound 50 µM; uninfected control = 100%, infected control = 0%; read-out: Viability Assay (% of Uninfected Control) 50 µM
Measured attribute: viability at 50 µM

Send back J774 cells infected with P. aeruginosa strain PAK viability at 50 µM of "Cc1c(Br)ccc(OCCCC(=O)NS(C)(=O)=O)c1C" only.
11%

Retrieve viability at 50 µM on J774 cells infected with P. aeruginosa strain PAK; query "O=C(O)CCCOc1ccc(Cl)cc1Cl"
12%

# return viability at 50 µM for "Cc1c(Br)ccc(OCCCC(=O)NS(=O)(=O)C(F)(F)F)c1C" , test system: J774 cells infected with P. aeruginosa strain PAK
11%

Find viability at 50 µM for Cc1c(Br)ccc(OC[C@@H]2C[C@H]2C(=O)O)c1C (relative stereo) on J774 cells infected with P. aeruginosa strain PAK and write it down.
21%

Provide viability at 50 µM, tested on J774 cells infected with P. aeruginosa strain PAK, for "Cc1c(Br)ccc(OCCCCC(=O)O)c1C" .
17%

Please look at "Cc1c(Br)ccc(OCCCC(=O)NS(=O)(=O)c2ccccc2)c1C" and tell me its recorded viability at 50 µM on J774 cells infected with P. aeruginosa strain PAK.
15%

Write down the reported viability at 50 µM (system: J774 cells infected with P. aeruginosa strain PAK) of "Cc1c(Br)ccc(OCCCc2ccccc2C(=O)O)c1C"
25%

Please report viability at 50 µM with J774 cells infected with P. aeruginosa strain PAK for item Cc1c(Br)ccc(OC[C@@H]2C[C@@H]2C(=O)O)c1C (relative stereo) .
24%

Name the value of viability at 50 µM reported for Cc1c(Br)ccc(OCCCC(=O)N2CCCCC2C(=O)O)c1C (stereo not drawn) when tested on J774 cells infected with P. aeruginosa strain PAK.
27%

State viability at 50 µM (J774 cells infected with P. aeruginosa strain PAK) of "O=C(O)CCCOc1cc(Cl)ccc1Oc1ccc(Cl)cc1Cl" .
3%

Param request: viability at 50 µM | system J774 cells infected with P. aeruginosa strain PAK | item "Cc1cc(Br)cc(C)c1OCCCC(=O)O"
18%

Please look at "COC(=O)CCCOc1ccc(Br)c(C)c1C" and tell me its recorded viability at 50 µM on J774 cells infected with P. aeruginosa strain PAK.
12%

Under J774 cells infected with P. aeruginosa strain PAK, report viability at 50 µM for "Cc1cc(OCCCC(=O)O)cc(C)c1Br"
23%

Jot down viability at 50 µM (J774 cells infected with P. aeruginosa strain PAK) of "Cc1c(Br)ccc(OCCCC(=O)O)c1C" .
20%

Give reported viability at 50 µM for "O=C(O)CCCOc1ccc(C2CCCCC2)cc1" (J774 cells infected with P. aeruginosa strain PAK)
17%

Report viability at 50 µM under test system J774 cells infected with P. aeruginosa strain PAK for Cc1c(Br)ccc(OCCCC(=O)NC(C(=O)O)c2ccccc2)c1C (stereo not drawn) .
26%

Find the measured viability at 50 µM of Cc1c(Br)ccc(OCCCC(=O)N2CCCC(C(=O)O)C2)c1C (stereo not drawn) with J774 cells infected with P. aeruginosa strain PAK as test system.
15%

State, for J774 cells infected with P. aeruginosa strain PAK, measured viability at 50 µM of the compound listed here: "Cc1c(Br)ccc(OCCCC(=O)N2CCC(C(=O)O)CC2)c1C"
18%
